Reference source for all entries: patent US12673945B2

Test system: TCCS cells
Assay Notes: human CML cell proliferation inhibition
Assay type: cell-based
Experimental Parameters: 72 hours, Cell Counting Kit-8
GI50 values by entry

[[record]]
molecule = "Cc1cc(F)c(C(=O)Nc2cc(OCCN(C)C)cc(C(F)(F)F)c2)cc1C#Cc1cnc2c(Nc3cnn(C)c3)cccn12"
observed_value = "< 10 nM"

[[record]]
molecule = "Cc1cc(F)c(C(=O)Nc2cc(CN3CCN(CCO)CC3)cc(C(C)(C)C#N)c2)cc1C#Cc1cnc2c(Nc3cn[nH]c3)cccn12"
observed_value = "< 10 nM"

[[record]]
molecule = "Cc1cc(F)c(C(=O)Nc2cc(Cn3cncn3)cc(C(F)(F)F)c2)cc1C#Cc1cnc2c(Nc3cnn(C)c3)cccn12"
observed_value = "< 10 nM"

[[record]]
molecule = "Cc1cc(F)c(C(=O)Nc2ccc(CN3CCC(N(C)C)C3)c(C(C)(C)C#N)c2)cc1C#Cc1cnc2c(Nc3cnn(C)c3)cccn12 (stereo not drawn)"
observed_value = "< 10 nM"


Using the record for Cc1cc(Cl)c(C(=O)Nc2cc(CN3CCN(CCO)CC3)cc(C(C)(C)C#N)c2)cc1C#Cc1cnc2c(Nc3cnn(C)c3)cccn12 , report its GI50.
< 10 nM

Using the record for Cc1cc(F)c(C(=O)Nc2ccc(CN3CCOCC3)c(C(F)(F)F)c2)cc1C#Cc1cnc2c(Nc3cnn(C)c3)cccn12 , report its GI50.
100 nM
